The reported measurements were obtained from patent EP4659811A1.

TARGET_OF_ASSAY: VP1 capsid protein on BKV pseudovirions of genotype IVc2 (A-66H; AB369093) (BK virus genotype IVc2 (A-66H))
PROCEDURE_DETAILS: cell-based or functional assay
READOUT_LABEL: Neutralization PSV IC50

Reference set (3 entries):
BINDER: antibody D11P7 (antibody, V domains shown) VH: EVQLVESGGGLVQPGGSLRLSCAASGFTFRSYTMDWVRQAPGKGLEWVSCISGSSNHKYYADSVRGRFTISRDNAKNSLFLQMNSLRAEDSAVYYCAREDDILTPLYGMDVWGPGTTVTVSS VL: QSALTQPASVSGSPGQSITISCTGTSSDVGAYNYVSWYRLRPGKDPHLIIYDVSHRPAGVSNRFSGSKSGNTASLTISGLQAEDEDEYYCCSYAHRGTPLFGGGTKLTVL
Neutralization PSV IC50: > 50 µg/mL
--
BINDER: antibody E10P5 (antibody, V domains shown) VH: QVQLQESGPGLVKPSQTLSLTCSVSGGSISSGNYYWSWIRQPAGKGLEWIGRIYTSGNTNYNPSLKSRVTMSVDTSKNQFSLKLSSVTATDTAVYYCARVRRDGYNAFDYWGQGTLVTVSS VL: SYELTQPPSVSVSPGQTASIDCSGHNLGDKFTCWYQQKPGQSPVLVIYQDSKRPSGIPERFSGSNSGNTATLTISGTQAMDEADYYCQAWDSDTLYVFGTGTTVTVL
Neutralization PSV IC50: > 50 µg/mL
--
BINDER: antibody E5P6 (antibody, V domains shown) VH: EVQLVESGGGVVQPGRSLRLSCAASGFIFNNHGMHWVRQAPGKGLEWVAGISYDGKKEYYIGSVKGRFTISRDNSRNTLYLHMNGLRPEDTAVYYCAKEAYGSGSPCDYWGQGTLVTVSS VL: EIVLTQSPGTLSLSPGERATLSCRASQRVSSNYLAWYQQKPGQAPRLLIYGASSRATGIPDRFSGSGSGTDFTLTISRLEPEDFAVYYCQQYGTSPRSFGRGTKLEIK
Neutralization PSV IC50: > 50 µg/mL

# Neutralization PSV IC50 (binder: antibody B5P4 (antibody, V domains shown) VH: QVQLVQSGAEVKKPGSSVKVSCKASGGRFSRYGSSWVRQAPGQGLEWMGGIIPLLGTANYAQKFQDRVSITADESTSTVYMHLSSLRSEDTAVYYCATARREYDRPGAEYFIQWGQGTLVTVSS VL: EIVMTQSPATLSVSPGERATLSCRASQSVSTNLAWYQQKPGQAPRLLIYDAFLRATGIPARFSGSGSGTEFTLTISSLQPEDFAVYYCQQYNYWPPLTFGGGTKVEIK ) is > 50 µg/mL

Neutralization PSV IC50 measured on antibody B9P6 (antibody, V domains shown) VH: EVQLVESGGGLVQPGGSLRLSCAASGFTFRSYTMDWVRQAPGKGLEWVSCISGSSNHKYYADSVRGRFTISRDNAKNSLFLQMNSLRAEDSAVYYCAREDDILTPLYGMDVWGPGTTVTVSS VL: EIVLTQSPDTLSLSPGARATLSCRASQSVRSNYLAWYQQKPGQAPRLLIYGASSRATAIPDRFSGSGSGTDFTLTITRLEPEDFAVYYCHQYGSSPRTFGQGTKVEIK = 0.0176 µg/mL
